Where do the numbers come from? From patent US10189842B2.

system: CFPAC-1 cells; test: Soft agar assay, CFPAC-1; type: cell-based; settings: Homo sapiens; CFPAC-1, Test 2; read-out: Test 2 IC50 (colony growth inhibitory concentration)
pIC50: −log10 of the molar value.

| Molecule | Assay target | pIC50 |
| --- | --- | --- |
| Cc1cc2n(n1)CCCN2C(=O)CCC(=O)Nc1ccc(-c2cccnc2)nn1 [Compound 51] | CFPAC-1 cells | 7.41 |

###

system: AsPC-1 cells; experiment: Soft agar assay, AsPC-1; assay type: cell-based; details: Homo sapiens, ASPC1; AsPC-1, mean of two independent experiments; read-out: Mean IC50 (colony growth inhibitory concentration)
pIC50: −log10 of the molar value.

| Compound | pIC50 |
| --- | --- |
| Cc1cc2n(n1)CCCN2C(=O)CCC(=O)Nc1ccc(-c2cccnc2)nn1 [Compound 51] | 7.77 |

###

system: HPAF-II cells; assay: Soft agar assay, HPAF-II; assay type: cell-based; conditions: Homo sapiens, Test 2, read-out: Test 2 IC50 (colony growth inhibitory concentration)
pIC50: −log10 of the molar value.

| Compound string | pIC50 |
| --- | --- |
| Cc1cc2n(n1)CCCN2C(=O)CCC(=O)Nc1ccc(-c2cccnc2)nn1 | 8.00 |
